assay: in vivo; conditions: male, Sprague-Dawley, rat, plasma, iv, 2 mg/kg
testReadout: AUC(0-inf) (ng·h/mL)
Write the number in ng·h/mL without appending the unit.

Qu. Please report the recorded AUC(0-inf) for Cc1cc(/C=C/C#N)cc(C)c1Oc1ccnc(Nc2ccc(N3CCN(S(C)(=O)=O)CC3)c(C#N)c2)n1 [Compound 18b1] .
Ans. 792

----------
assay: in vivo; conditions: male, Sprague-Dawley, rat, plasma, po, 10 mg/kg
testReadout: Cmax

Qu. Report Cmax for Cc1cc(/C=C/C#N)cc(C)c1Oc1ccnc(Nc2ccc(N3CCN(S(C)(=O)=O)CC3)c(C#N)c2)n1 [Compound 18b1] please.
Ans. 16.1 ng/mL
